Assay: Cytotoxicity in human MT4 cells assessed as reduction of cell viability incubated for 3 days by CytoTox-Glo cytotoxicity assay
Format: cell-based
readout.kind: CC50 at 72 h

CC50 at 72 h reading for O=C(Cc1ccc(C(F)(F)F)cc1)NCCCCN1CCCC2=C[C@H]3C[C@H](CN4CCCC[C@H]34)[C@@H]21 : > 40 µM

The value of CC50 at 72 h measured for the molecule C1=C2CCCN[C@H]2[C@@H]2C[C@H]1[C@H]1CCCCN1C2 turned out to be > 86 µM

Measured CC50 at 72 h of O=C(Cc1ccc(S(=O)(=O)C(F)(F)F)cc1)NCCCCN1CCC[C@H]2C[C@H]3C[C@H](CN4CCCC[C@H]34)[C@@H]21 : > 40 µM

The measured CC50 at 72 h associated with O=C(NCCCCN1CCCC2=C[C@H]3C[C@H](CN4CCCC[C@H]34)[C@@H]21)c1ccc(-c2ccsc2)cc1 reads 21.2 µM

Value of CC50 at 72 h reported for the molecule O=C(NCCCCN1CCCC2=C[C@H]3C[C@H](CN4CCCC[C@H]34)[C@@H]21)c1ccc(S(=O)(=O)C(F)(F)F)cc1 is > 40 µM

Lab note: measured CC50 at 72 h of O=C(Cc1ccc([S+]([O-])C(F)(F)F)cc1)NCCCCN1CCCC2=C[C@H]3C[C@H](CN4CCCC[C@H]34)[C@@H]21 (stereo partly specified) was > 40 µM

# molecule O=C(Cc1ccc(SC(F)(F)F)cc1)NCCCCN1CCCC2=C[C@H]3C[C@H](CN4CCCC[C@H]34)[C@@H]21 ; its CC50 at 72 h = 23.8 µM

Entry O=C(NCCCCN1CCCC2=C[C@H]3C[C@H](CN4CCCC[C@H]34)[C@@H]21)c1ccc(C(F)(F)F)c(F)c1 — recorded CC50 at 72 h = > 40 µM

Briefly, CC50 at 72 h measured for O=C(NCCCCN1CCCC2=C[C@H]3C[C@H](CN4CCCC[C@H]34)[C@@H]21)C(=O)c1ccc(C(F)(F)F)cc1 : > 40 µM

// CC50 at 72 h value for O=C(Cc1ccc(OC(F)(F)F)cc1)NCCCCN1CCC[C@@H]2C[C@H]3C[C@H](CN4CCCC[C@H]34)[C@@H]21 : > 40 µM

Sure, the documented CC50 at 72 h for O=C(NCCCCN1CCCC2=C[C@H]3C[C@H](CN4CCCC[C@H]34)[C@@H]21)c1ccc2c(c1)OCO2 is > 40 µM

Form: molecule = O=C(NCCCCN1CCCC2=C[C@H]3C[C@H](CN4CCCC[C@H]34)[C@@H]21)c1ccc(-c2cccs2)cc1 ; CC50 at 72 h = 16.2 µM

// recorded CC50 at 72 h for O=C(Cc1ccc(S(=O)(=O)CC(F)(F)F)cc1)NCCCCN1CCCC2=C[C@H]3C[C@H](CN4CCCC[C@H]34)[C@@H]21 : > 40 µM

CC50 at 72 h for O=C(CCc1ccc(OC(F)(F)F)cc1)NCCCCN1CCCC2=C[C@H]3C[C@H](CN4CCCC[C@H]34)[C@@H]21 is > 40 µM

Lookup result for O=S(=O)(Cc1ccc(OC(F)(F)F)cc1)NCCCCN1CCCC2=C[C@H]3C[C@H](CN4CCCC[C@H]34)[C@@H]21 ; measured CC50 at 72 h: 35.7 µM

The recorded CC50 at 72 h for entry O=S(=O)(NCCCCN1CCCC2=C[C@H]3C[C@H](CN4CCCC[C@H]34)[C@@H]21)c1ccc(OC(F)(F)F)cc1 equals > 40 µM

Noted for O=C(Cc1ccc(OC(F)(F)F)cc1)NCCCCN1CCC[C@H]2C[C@H]3C[C@H](CN4CCCC[C@H]34)[C@@H]21 : its CC50 at 72 h reads > 40 µM

CC50 at 72 h measured on O=C(Cc1ccc(S(=O)(=O)C(F)(F)F)cc1)NCCCCN1CCC[C@@H]2C[C@H]3C[C@H](CN4CCCC[C@H]34)[C@@H]21 = > 40 µM

CC50 at 72 h recorded for this molecule, CC(C)(C)c1ccc(C(=O)NCCCCN2CCCC3=C[C@H]4C[C@H](CN5CCCC[C@H]45)[C@@H]32)cc1 , is 12.9 µM

CC50 at 72 h reported for this molecule O=C(NCCCCN1CCCC2=C[C@H]3C[C@H](CN4CCCC[C@H]34)[C@@H]21)c1ccc(S(=O)(=O)F)cc1 : 38.5 µM

Per the records, this molecule ( O=C(NCCCCN1CCCC2=C[C@H]3C[C@H](CN4CCCC[C@H]34)[C@@H]21)c1ccc(C(=O)c2ccccc2)cc1 ) has CC50 at 72 h equal to > 40 µM

CC50 at 72 h for CC(C)(C)c1ccc(CC(=O)NCCCCN2CCCC3=C[C@H]4C[C@H](CN5CCCC[C@H]45)[C@@H]32)cc1 is > 40 µM

# CC50 at 72 h of O=C(NCCCCN1CCCC2=C[C@H]3C[C@H](CN4CCCC[C@H]34)[C@@H]21)C1CCC(F)(F)CC1 = > 40 µM

The molecule listed as O=C(Cc1ccc(Br)cc1)NCCCCN1CCCC2=C[C@H]3C[C@H](CN4CCCC[C@H]34)[C@@H]21 has a reported CC50 at 72 h of > 40 µM

Entry CS(=O)(=O)c1ccc(CC(=O)NCCCCN2CCCC3=C[C@H]4C[C@H](CN5CCCC[C@H]45)[C@@H]32)cc1 , CC50 at 72 h reported as > 40 µM

The recorded CC50 at 72 h for entry O=C(Cc1ccc2c(c1)OCO2)NCCCCN1CCCC2=C[C@H]3C[C@H](CN4CCCC[C@H]34)[C@@H]21 equals > 40 µM
